Some binders, each annotated with its measured pKd.
molecular target: T1, human CI-M6PR domain1-3His6 (human, UniProt P11717 41-467); assay: BLI, biotinylated antigen on SA tips, global 1:1 fit, dissociation at pH 7.4
T1 construct: Recombinant, made in HEK293 cells; Biotinylated with NHS-PEG4-biotin for BLI; unlabelled in SEC-MALLS and crystallisation; also called CI-M6PR hDom1-3His6; hDom1-3His6
Expect pKd as a plain number equal to -log10 of the molar concentration.

Previously resolved entries follow.
Give a short answer stating reported pKd for humanized variant VHH7h1 (VHH, Made in E. coli, IMAC purified; tag not specified) VHH: EVQLVESGGGLVQPGGSLRLSCAASGIIFSDNRMDWYRQAPGKQREWVATLASYGWKTYADSVKGRFTISRDNSKNTVYLQMNSLRPEDTAVYYCKASSPVLNDIWGQGTLVTVSS .
7.85

Given the binder humanized variant VHH7h2 (VHH, Made in E. coli, IMAC purified; tag not specified) VHH: DVQLVESGGGLVQPGGSLRLSCAASGIIFSDNRMDWYRQAPGKQREWVATLASYGWKTYADSVKGRFTISRDNSKNTVYLQMNSLRPEDTAVYYCKASSPVLNDIWGQGTLVTVSS , write its reported pKd.
7.87

Assign pKd to the following record: humanized variant VHH8h2 (VHH, Made in E. coli, IMAC purified; tag not specified) VHH: DVQLVESGGGLVQPGGSLRLSCAASGRTFNTYNWGWFRQAPGKEREFVAAIRWSSSKTSYADSVKGRFTISRDNSKNTVYLQMNSLRPEDTAVYYCAASIVDFTTNPSHFGSWGQGTLVTVSS
8.51

More entries:
Please give measured pKd of the following entry: humanized variant VHH7h3 (VHH, Made in E. coli, IMAC purified; tag not specified) VHH: DVQLVESGGGLVQPGGSLRLSCAASGIIFSDNRMDWYRQAPGKQREWVATLASYGWKTYADSVKGRFTISRDNTKNTVYLQMNSLRPEDTAVYYCKASSPVLNDIWGQGTLVTVSS
7.85
